- Procedure Summary: folding enthalpy; higher = less favourable; fluorescence melt of hairpins on a sequencing array, two-state fit
- Protocol Conditions: sodium 0.088 M
Class definitions on folding enthalpy: one (below -30 kcal/mol), two (-30 kcal/mol to below -20 kcal/mol), three (-20 kcal/mol or more)

| Residue Sequence | Class Label |
| --- | --- |
| GATCTAAGTCTAGATC ((((((....)))))) | two |
| GTCTGCGAAAGCAGTGAC ((((((....)))..))) | three |
| GCGGCAGGAAACTGCCAC (.(((((....))))).) | three |
| GATGAGCCGAAAGGCATC (((..(((....)))))) | three |
| TTGGAGAAATCCAA (((((....))))) | three |
| GCTTCGACGAAAGTCAGC (((..(((....)))))) | three |
| GACGGAGGAAACTCCATC ((.((((....)))).)) | three |
| GTATCTGAAAAGATAC ((((((....)))))) | one |
| GCATGCTCGAAAGAGTGC (((..(((....)))))) | three |
| GGTGACGGAAACGTTGCC ((..(((....)))..)) | one |
| GTAGGCGAAAGCCGTTAC ((((((....)))..))) | three |
| GGCGATCGAAAGATTGCC (((.(((....))).))) | one |
| GCGTACGGAAACACACGC ((((..(....)..)))) | two |
| GCCCACGGAAACGCAGGC (((..((....))..))) | three |
| GCTCAGCGAAAGCTAGGC ((..(((....)))..)) | three |
| GTCAGCGGAAACGTTGAC ((((.((....)).)))) | one |
| GTATGCGGAAACGTATGC (.((.((....)).)).) | three |
| GAGAGGGGAAACCTTCTC ((((.((....)).)))) | two |
| GGGCTAGCGAAAGCTCCC (((..(((....)))))) | three |
| GAAGCAGGAAACTGTTTC (((.(((....))).))) | two |
| GCAATCCGAAAGGAGTGC (((.(((....))).))) | one |
| GGACCTCGAAAGAGTTCC (((.(((....))).))) | two |
| GCCAGTGGAAACATTGGC ((((.((....)).)))) | one |
| GACTCCCGAAAGGGTGTC (((.(((....))).))) | one |
| GATCGAGGAAACTCGATC (((((((....))))))) | one |
| GATCGACACATCGATC ((((((....)))))) | one |
| GGCTACGAAAGTACTGCC ((((((....)))..))) | two |
